target: CYP2D6 (Homo sapiens, UniProt P10635); experiment: Cytochrome inhibition, fluorometric microtiter plate assay (substrate AMMC); format: biochemical; conditions: compounds of the invention; human recombinant CYP2D6
Sequence (P10635 whole entry): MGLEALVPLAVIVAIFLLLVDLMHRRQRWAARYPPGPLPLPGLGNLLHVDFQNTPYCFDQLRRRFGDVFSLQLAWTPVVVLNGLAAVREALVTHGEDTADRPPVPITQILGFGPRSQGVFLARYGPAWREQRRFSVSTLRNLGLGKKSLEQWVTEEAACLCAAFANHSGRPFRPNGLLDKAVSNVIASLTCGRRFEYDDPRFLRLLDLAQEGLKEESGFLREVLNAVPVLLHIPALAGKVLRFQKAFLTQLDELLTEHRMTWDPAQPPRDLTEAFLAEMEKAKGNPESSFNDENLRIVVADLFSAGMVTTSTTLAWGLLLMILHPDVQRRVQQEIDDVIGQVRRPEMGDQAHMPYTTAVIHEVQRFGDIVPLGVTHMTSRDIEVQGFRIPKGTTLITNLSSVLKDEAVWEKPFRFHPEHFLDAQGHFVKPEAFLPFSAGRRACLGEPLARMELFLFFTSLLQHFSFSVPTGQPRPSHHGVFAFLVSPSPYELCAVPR
Each entry below carries its reported IC50.

Molecule	Value kind	Result
C[C@H]1C[C@H](C)CN(CCCOc2ccc(C3=NCCC3)cc2)C1 (relative stereo)	IC50	> 100 µM

Lab note: C[C@H]1C[C@H](C)CN(CCCOc2ccc(C(=O)N(C)C)cc2)C1 (relative stereo) gave IC50 of > 100 µM

* * *

target: CYP2D6 (Homo sapiens); assay: Cytochrome inhibition, fluorometric microtiter plate assay (substrate AMMC); type: biochemical; details: read-out: CYP2D6 (IC50, concentrations for 50% inhibition); comparative compounds of WO 00/06254
Value kind: pIC50
Keep in mind that pIC50 stands for -log10 of concentration in molar terms.

Lab note: Cc1cc(-c2ccc(OCCCN3CCC[C@H](C)C3)cc2)ccn1 gave pIC50 of 6.00
